These entries and their values trace back to the supplement of paper PMC7877785.

assay: self-splicing fitness, log relative to wild type (ln ratio); higher = more splicing; Tetrahymena group I intron in knt gene, E. coli kanamycin selection, DiMSum; sequences stand for … in CUCUCU…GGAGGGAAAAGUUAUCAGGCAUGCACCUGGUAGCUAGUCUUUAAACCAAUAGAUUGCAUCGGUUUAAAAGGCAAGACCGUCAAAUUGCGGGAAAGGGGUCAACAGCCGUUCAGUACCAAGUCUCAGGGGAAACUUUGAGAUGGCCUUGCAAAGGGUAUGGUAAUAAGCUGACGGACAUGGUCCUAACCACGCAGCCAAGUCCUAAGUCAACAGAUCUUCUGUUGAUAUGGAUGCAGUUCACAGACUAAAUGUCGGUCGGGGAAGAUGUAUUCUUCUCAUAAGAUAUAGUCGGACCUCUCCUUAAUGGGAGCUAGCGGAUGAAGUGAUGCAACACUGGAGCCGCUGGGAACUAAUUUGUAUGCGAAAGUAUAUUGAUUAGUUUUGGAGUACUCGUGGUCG; details: 37 °C;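 also: selection with 25 µg/mL kanamycin versus none on LB agar overnight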
Measured Metric: self-splicing fitness (ln)

Prompt line: Requested read-out: self-splicing fitness (ln). Entry: AUGUAGCAAUAUUACGUCGC
Response line: -2.35

Prompt line: Requested read-out: self-splicing fitness (ln). Entry: CAUCAGCAAUAUUACGCGGA
Response line: -2.6

Prompt line: Requested read-out: self-splicing fitness (ln). Entry: GUGAAGCAAUAUUACGUUUG
Response line: -1.85

Prompt line: Requested read-out: self-splicing fitness (ln). Entry: UGCGAGCAAUAUUACGGGCG
Response line: -0.628

Prompt line: Requested read-out: self-splicing fitness (ln). Entry: AGGAAGCAAUAUUACGUGAA
Response line: -1.97

Prompt line: Requested read-out: self-splicing fitness (ln). Entry: ACCAAGCAAUAUUACGUCGU
Response line: -1.88

Prompt line: Requested read-out: self-splicing fitness (ln). Entry: AACUAGCAAUAUUACGCACU
Response line: -0.0139

Prompt line: Requested read-out: self-splicing fitness (ln). Entry: ACAUAGCAAUAUUACGGAGC
Response line: -0.767

Prompt line: Requested read-out: self-splicing fitness (ln). Entry: CUUCAGCAAUAUUACGUAGU
Response line: -2.5

Prompt line: Requested read-out: self-splicing fitness (ln). Entry: CCUGAGCAAUAUUACGACGA
Response line: -1.61

Prompt line: Requested read-out: self-splicing fitness (ln). Entry: UUCUAGCAAUAUUACGUGAA
Response line: -0.148

Prompt line: Requested read-out: self-splicing fitness (ln). Entry: UCGCAGCAAUAUUACGGUCC
Response line: -1.82

Prompt line: Requested read-out: self-splicing fitness (ln). Entry: CGAGAGCAAUAUUACGCAUU
Response line: -2.33

Prompt line: Requested read-out: self-splicing fitness (ln). Entry: UGGCAGCAAUAUUACGCCCA
Response line: 0.585

Prompt line: Requested read-out: self-splicing fitness (ln). Entry: GAGGAGCAAUAUUACGACUC
Response line: -2.25

Prompt line: Requested read-out: self-splicing fitness (ln). Entry: UGAUAGCAAUAUUACGUUCU
Response line: 0.264

Prompt line: Requested read-out: self-splicing fitness (ln). Entry: AUCUAGCAAUAUUACGUGAA
Response line: -0.861

Prompt line: Requested read-out: self-splicing fitness (ln). Entry: AGUAAGCAAUAUUACGCUAG
Response line: -2.39

Prompt line: Requested read-out: self-splicing fitness (ln). Entry: GAGCAGCAAUAUUACGAGUC
Response line: -1.92

Prompt line: Requested read-out: self-splicing fitness (ln). Entry: GGUCAGCAAUAUUACGACUU
Response line: -1.09

Prompt line: Requested read-out: self-splicing fitness (ln). Entry: ACGCAGCAAUAUUACGAGCG
Response line: -0.23

Prompt line: Requested read-out: self-splicing fitness (ln). Entry: GACAAGCAAUAUUACGACCA
Response line: -0.806

Prompt line: Requested read-out: self-splicing fitness (ln). Entry: CACAAGCAAUAUUACGUGGG
Response line: -2.42

Prompt line: Requested read-out: self-splicing fitness (ln). Entry: GCAAAGCAAUAUUACGAGUG
Response line: -0.371

Prompt line: Requested read-out: self-splicing fitness (ln). Entry: UAGUAGCAAUAUUACGCUAU
Response line: -1.16

Prompt line: Requested read-out: self-splicing fitness (ln). Entry: GCGAAGCAAUAUUACGUGCU
Response line: -2.75

Prompt line: Requested read-out: self-splicing fitness (ln). Entry: ACGUAGCAAUAUUACGAUUA
Response line: -0.514

Prompt line: Requested read-out: self-splicing fitness (ln). Entry: CUAUAGCAAUAUUACGAUAC
Response line: -2.61

Prompt line: Requested read-out: self-splicing fitness (ln). Entry: UACUAGCAAUAUUACGGGUA
Response line: -1.84

Prompt line: Requested read-out: self-splicing fitness (ln). Entry: GAAAAGCAAUAUUACGGGCA
Response line: -0.191

###

Give measured self-splicing fitness (ln) for each item. Keep answers brief.
test: self-splicing fitness, log relative to wild type (ln ratio); higher = more splicing; Tetrahymena group I intron in knt gene, E. coli kanamycin selection, DiMSum; sequences stand for … in CUCUCU…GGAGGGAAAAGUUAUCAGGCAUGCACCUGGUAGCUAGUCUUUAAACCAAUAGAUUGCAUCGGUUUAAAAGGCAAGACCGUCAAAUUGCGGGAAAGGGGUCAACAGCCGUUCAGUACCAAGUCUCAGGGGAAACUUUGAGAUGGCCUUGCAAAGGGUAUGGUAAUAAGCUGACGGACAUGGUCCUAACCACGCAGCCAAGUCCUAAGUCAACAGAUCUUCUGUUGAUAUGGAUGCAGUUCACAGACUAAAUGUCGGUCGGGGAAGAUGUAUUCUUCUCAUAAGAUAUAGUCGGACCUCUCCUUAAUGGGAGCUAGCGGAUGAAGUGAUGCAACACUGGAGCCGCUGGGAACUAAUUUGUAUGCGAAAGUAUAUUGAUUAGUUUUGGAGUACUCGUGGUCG; details: 30 °C
Lab note: jot down the number only; don't add units.

Prompt line: Requested read-out: self-splicing fitness (ln). Entry: AGCCAGCAAUAUUACGACUA
Response line: -1.99

Prompt line: Requested read-out: self-splicing fitness (ln). Entry: CCAAAGCAAUAUUACGGACG
Response line: -0.4

Prompt line: Requested read-out: self-splicing fitness (ln). Entry: GACAAGCAAUAUUACGUAUU
Response line: -2.83

Prompt line: Requested read-out: self-splicing fitness (ln). Entry: UGCAAGCAAUAUUACGGACA
Response line: -0.633

Prompt line: Requested read-out: self-splicing fitness (ln). Entry: CUCCAGCAAUAUUACGAGCG
Response line: -2.95

Prompt line: Requested read-out: self-splicing fitness (ln). Entry: ACAGAGCAAUAUUACGUUGA
Response line: -2.69

Prompt line: Requested read-out: self-splicing fitness (ln). Entry: GUAAAGCAAUAUUACGGCUU
Response line: -0.183

Prompt line: Requested read-out: self-splicing fitness (ln). Entry: ACCCAGCAAUAUUACGACGC
Response line: 0.24

Prompt line: Requested read-out: self-splicing fitness (ln). Entry: GCGGAGCAAUAUUACGACAU
Response line: -1.38

Prompt line: Requested read-out: self-splicing fitness (ln). Entry: CGUAAGCAAUAUUACGUCAA
Response line: -2.62

Prompt line: Requested read-out: self-splicing fitness (ln). Entry: AAUUAGCAAUAUUACGACGC
Response line: -1.08

Prompt line: Requested read-out: self-splicing fitness (ln). Entry: AAUUAGCAAUAUUACGUGCU
Response line: -2.18

Prompt line: Requested read-out: self-splicing fitness (ln). Entry: GUCUAGCAAUAUUACGUUAC
Response line: -0.99

Prompt line: Requested read-out: self-splicing fitness (ln). Entry: AAAAAGCAAUAUUACGGAAG
Response line: -2.88

Prompt line: Requested read-out: self-splicing fitness (ln). Entry: UCUGAGCAAUAUUACGACGU
Response line: -0.648

Prompt line: Requested read-out: self-splicing fitness (ln). Entry: CGAAAGCAAUAUUACGGGCU
Response line: -2.74

Prompt line: Requested read-out: self-splicing fitness (ln). Entry: AGUAAGCAAUAUUACGUGAU
Response line: -3.15

Prompt line: Requested read-out: self-splicing fitness (ln). Entry: UUGCAGCAAUAUUACGGAAA
Response line: -2.52

Prompt line: Requested read-out: self-splicing fitness (ln). Entry: CCAUAGCAAUAUUACGGGUU
Response line: -3.69

Prompt line: Requested read-out: self-splicing fitness (ln). Entry: UGGUAGCAAUAUUACGUUAC
Response line: -2.42

Prompt line: Requested read-out: self-splicing fitness (ln). Entry: CAACAGCAAUAUUACGGUGA
Response line: -1.58

Prompt line: Requested read-out: self-splicing fitness (ln). Entry: GACCAGCAAUAUUACGAUAU
Response line: -0.781
